Provenance of the data: paper PMC6377810

# ASSAY TARGET: Hsc70 (Homo sapiens, UniProt P11142)
# Sequence (P11142 whole entry): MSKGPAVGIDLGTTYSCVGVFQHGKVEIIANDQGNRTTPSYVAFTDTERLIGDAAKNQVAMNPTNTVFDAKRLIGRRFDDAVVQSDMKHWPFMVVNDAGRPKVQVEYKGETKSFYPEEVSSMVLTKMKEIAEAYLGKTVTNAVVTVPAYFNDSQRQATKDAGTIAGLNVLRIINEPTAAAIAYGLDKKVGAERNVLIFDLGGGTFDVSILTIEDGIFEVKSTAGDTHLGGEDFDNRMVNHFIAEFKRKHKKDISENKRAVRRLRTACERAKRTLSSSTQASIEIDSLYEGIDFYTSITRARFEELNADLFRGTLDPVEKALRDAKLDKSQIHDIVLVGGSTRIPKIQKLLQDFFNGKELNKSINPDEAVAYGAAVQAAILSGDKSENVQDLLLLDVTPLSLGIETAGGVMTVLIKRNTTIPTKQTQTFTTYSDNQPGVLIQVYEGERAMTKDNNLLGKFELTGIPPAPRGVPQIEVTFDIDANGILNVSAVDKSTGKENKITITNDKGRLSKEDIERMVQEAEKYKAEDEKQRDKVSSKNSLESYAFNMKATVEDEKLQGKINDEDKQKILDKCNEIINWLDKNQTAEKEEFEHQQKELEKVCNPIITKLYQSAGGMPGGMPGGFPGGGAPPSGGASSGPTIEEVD
# ASSAY PROCEDURE: direct binding by quench of compound fluorescence
MEASURED ATTRIBUTE: pKd
Lab note — pKd values are minus log10 of concentrations in M.

Supply measured pKd of `CCn1c(=O)/c(=C2\Sc3cc(Cl)ccc3N2C)s/c1=C\c1scc[n+]1Cc1ccccc1OC(F)F` in your reply.
5.82
